Target desc: human ADAMTS-5 (Homo sapiens (Human))
Sequence (Q9UNA0 262-930): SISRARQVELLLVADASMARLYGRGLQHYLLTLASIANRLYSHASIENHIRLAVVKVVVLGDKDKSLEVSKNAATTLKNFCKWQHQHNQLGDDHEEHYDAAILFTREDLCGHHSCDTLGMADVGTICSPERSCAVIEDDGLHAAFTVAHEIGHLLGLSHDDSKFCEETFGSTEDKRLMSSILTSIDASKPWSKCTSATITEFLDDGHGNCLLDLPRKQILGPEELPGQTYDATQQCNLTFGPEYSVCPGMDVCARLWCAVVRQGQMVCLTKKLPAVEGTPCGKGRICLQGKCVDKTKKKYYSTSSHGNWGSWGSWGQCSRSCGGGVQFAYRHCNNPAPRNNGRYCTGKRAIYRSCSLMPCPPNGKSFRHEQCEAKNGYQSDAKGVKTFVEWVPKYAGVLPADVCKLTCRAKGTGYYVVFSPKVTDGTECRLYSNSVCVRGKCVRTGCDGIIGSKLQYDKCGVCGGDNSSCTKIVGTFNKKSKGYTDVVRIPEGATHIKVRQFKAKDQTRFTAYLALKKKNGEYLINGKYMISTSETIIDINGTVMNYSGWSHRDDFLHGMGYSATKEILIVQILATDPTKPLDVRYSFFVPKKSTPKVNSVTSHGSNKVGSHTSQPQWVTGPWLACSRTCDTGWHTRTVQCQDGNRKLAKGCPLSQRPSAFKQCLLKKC
Experiment: hADAMTS-5 TBIS-1 cleavage assay, Protocol 3
Format: biochemical
Cond: Protocol 3, TBIS-1 substrate, 90 min at 37° C.; read-out: hADAMTS-5 potency IC50
Each entry below carries its reported IC50.

>  <Compound>
COc1cc(Cl)c(Cl)cc1C1CCN(C(=O)CC[C@H]2NC(=O)NC2=O)CC1 [Cpd 61]

>  <Target desc>
human ADAMTS-5 (Homo sapiens (Human))

>  <IC50>
> 100 nM

$$$$
>  <Compound>
CCc1cc(C2CCN(C(=O)CC[C@@]3(C)NC(=O)NC3=O)CC2)cc(OC)c1Cl [Cpd 105]

>  <Target desc>
human ADAMTS-5 (Homo sapiens (Human))

>  <IC50>
> 100 nM

$$$$
>  <Compound>
COc1cc(Cl)cc(C2CCN(C(=O)CC[C@@]3(C)NC(=O)NC3=O)CC2)c1 [Cpd 66]

>  <Target desc>
human ADAMTS-5 (Homo sapiens (Human))

>  <IC50>
> 100 nM

$$$$
>  <Compound>
COc1cc(C2CCN(C(=O)CCC3(C)NC(=O)NC3=O)CC2)cc(OC)c1F (centres unmarked) [Cpd 72]

>  <Target desc>
human ADAMTS-5 (Homo sapiens (Human))

>  <IC50>
> 100 nM

$$$$
>  <Compound>
COc1cc(Cl)c(C)cc1C1CCN(C(=O)CC[C@@]2(C)NC(=O)NC2=O)CC1 [Cpd 89]

>  <Target desc>
human ADAMTS-5 (Homo sapiens (Human))

>  <IC50>
> 100 nM

$$$$
>  <Compound>
C[C@@H](C[C@@]1(C)NC(=O)NC1=O)C(=O)N1CCC(c2ccc(F)cc2)CC1 (stereo in doubt) [Cpd 26]

>  <Target desc>
human ADAMTS-5 (Homo sapiens (Human))

>  <IC50>
50 to 100 nM

$$$$
>  <Compound>
O=C1NC(=O)C(CCC(=O)N2CCC(c3cccc(Cl)c3)CC2)(C2CC2)N1 (centres unmarked) [Cpd 18]

>  <Target desc>
human ADAMTS-5 (Homo sapiens (Human))

>  <IC50>
25 to 50 nM

$$$$
>  <Compound>
COc1cc(C2CCN(C(=O)CC[C@H]3NC(=O)NC3=O)CC2)cc(F)c1Cl [Cpd 46]

>  <Target desc>
human ADAMTS-5 (Homo sapiens (Human))

>  <IC50>
50 to 100 nM

$$$$

* * *

Target desc: human ADAMTS-5 (Homo sapiens (Human))
Experiment: hADAMTS-5 TBIS-1 cleavage assay, Protocol 3
Format: biochemical
Cond: Protocol 3, TBIS-1 substrate, 90 min at 37° C.; read-out: hADAMTS-5 potency IC50
Property name: IC50

>  <Compound>
COc1ccc(C2CCN(C(=O)CC[C@H]3NC(=O)NC3=O)CC2)cc1

>  <Reported value>
> 100 nM

$$$$
>  <Compound>
COc1cc(C2CCN(C(=O)CC[C@H]3NC(=O)NC3=O)CC2)cc(F)c1F

>  <Reported value>
> 100 nM

$$$$
>  <Compound>
COc1cc(C2CCN(C(=O)CC[C@@]3(C)NC(=O)NC3=O)CC2)cc(C)c1Cl

>  <Reported value>
50 to 100 nM

$$$$
>  <Compound>
COc1ccc(Cl)cc1C1CCN(C(=O)CC[C@H]2NC(=O)NC2=O)CC1

>  <Reported value>
> 100 nM

$$$$
>  <Compound>
Cc1c(Cl)cc(Cl)cc1C1CCN(C(=O)CCC2(C)NC(=O)NC2=O)CC1 (centres unmarked)

>  <Reported value>
> 100 nM

$$$$
>  <Compound>
Cc1cc(Cl)c(F)cc1C1CCN(C(=O)CCC2(C)NC(=O)NC2=O)CC1 (centres unmarked)

>  <Reported value>
> 100 nM

$$$$
>  <Compound>
COc1cc(C2CCN(C(=O)CCC3(C)NC(=O)NC3=O)CC2)cc(F)c1F (centres unmarked)

>  <Reported value>
> 100 nM

$$$$
>  <Compound>
C[C@H]1CN(C(=O)CC[C@@]2(C3CC3)NC(=O)NC2=O)CC[C@H]1c1ccc(F)c(F)c1

>  <Reported value>
25 to 50 nM

$$$$
>  <Compound>
O=C1NC(=O)[C@@H](CCC(=O)N2CCC(c3ccc(Cl)c(F)c3)CC2)N1

>  <Reported value>
> 100 nM

$$$$
>  <Compound>
COc1cc(C2CCN(C(=O)CC[C@@]3(C)NC(=O)NC3=O)CC2)cc(OC)c1F

>  <Reported value>
50 to 100 nM

$$$$
>  <Compound>
COc1ccc(C2CCN(C(=O)CCC3(C)NC(=O)NC3=O)CC2)cc1 (centres unmarked)

>  <Reported value>
> 100 nM

$$$$
>  <Compound>
CCOc1cc(C2CCN(C(=O)CC[C@H]3NC(=O)NC3=O)CC2)cc(OC)c1Cl

>  <Reported value>
> 100 nM

$$$$
>  <Compound>
C[C@@H](C[C@@]1(C)NC(=O)NC1=O)C(=O)N1CCC(c2cccc(Cl)c2)CC1 (stereo in doubt)

>  <Reported value>
25 to 50 nM

$$$$
>  <Compound>
COc1cc(C2CCN(C(=O)[C@@H](C)C[C@@]3(C)NC(=O)NC3=O)CC2)cc(F)c1Cl

>  <Reported value>
25 to 50 nM

$$$$
>  <Compound>
COc1c(Cl)cccc1C1CCN(C(=O)CC[C@@]2(C)NC(=O)NC2=O)CC1

>  <Reported value>
> 100 nM

$$$$
>  <Compound>
CC1(CCC(=O)N2CCC(c3ccc(-c4ccccc4F)s3)CC2)NC(=O)NC1=O (centres unmarked)

>  <Reported value>
> 100 nM

$$$$
>  <Compound>
COc1cc(C2CCN(C(=O)CC[C@H]3NC(=O)NC3=O)CC2)c(C)cc1Cl

>  <Reported value>
> 100 nM

$$$$

* * *

Reported IC50, human ADAMTS6 (Homo sapiens (Human), UniProt Q9UKP5).

>  <Molecule>
O=C1NC(=O)[C@@H](CCC(=O)N2CCC(c3ccc(F)c(F)c3)CC2)N1 [Cpd 53]

>  <IC50>
> 100 nM

$$$$
>  <Molecule>
COc1cc(C2CCN(C(=O)CC[C@H]3NC(=O)NC3=O)CC2)cc(OC)c1F [Cpd 82]

>  <IC50>
0.001 to 25 nM

$$$$
>  <Molecule>
COc1cc(C2CCN(C(=O)CC[C@H]3NC(=O)NC3=O)CC2)cc(N(C)C)c1Cl [Cpd 91]

>  <IC50>
25 to 50 nM

$$$$
>  <Molecule>
CC1(CCC(=O)N2CCC(c3ccc(F)cc3)CC2)NC(=O)NC1=O (centres unmarked) [Cpd 10]

>  <IC50>
> 100 nM

$$$$
>  <Molecule>
COc1cc(C2CCN(C(=O)[C@@H](C)C[C@@]3(C)NC(=O)NC3=O)CC2)cc(F)c1Cl [Cpd 102]

>  <IC50>
0.001 to 25 nM

$$$$
>  <Molecule>
COc1cc(Cl)c(F)cc1C1CCN(C(=O)CC[C@@]2(C)NC(=O)NC2=O)CC1 [Cpd 100]

>  <IC50>
0.001 to 25 nM

$$$$
>  <Molecule>
COc1cc(Cl)c(F)cc1C1CCN(C(=O)C(C)CC2(C)NC(=O)NC2=O)CC1 (centres unmarked) [Cpd 110]

>  <IC50>
0.001 to 25 nM

$$$$
>  <Molecule>
COC[C@]1(C[C@H](C)C(=O)N2CCC(c3cc(F)c(Cl)cc3OC)CC2)NC(=O)NC1=O (stereo in doubt) [Cpd 109]

>  <IC50>
0.001 to 25 nM

$$$$

* * *

Below are IC50 values recorded for human ADAMTS6 (Homo sapiens (Human)).

>  <Compound>
COc1cc(Cl)c(Cl)cc1C1CCN(C(=O)CCC2(C)NC(=O)NC2=O)CC1 (stereo not drawn)

>  <IC50>
0.001 to 25 nM

$$$$
>  <Compound>
COc1cc(F)cc(C2CCN(C(=O)CCC3(C)NC(=O)NC3=O)CC2)c1 (stereo not drawn)

>  <IC50>
50 to 100 nM

$$$$
>  <Compound>
COc1cc(C2CCN(C(=O)CC[C@@]3(C)NC(=O)NC3=O)CC2)cc(F)c1Cl

>  <IC50>
0.001 to 25 nM

$$$$
>  <Compound>
Cc1cc(C2CCN(C(=O)CC[C@@]3(C)NC(=O)NC3=O)CC2)ccc1Cl

>  <IC50>
0.001 to 25 nM

$$$$
>  <Compound>
COc1cc(C2CCN(C(=O)CC[C@@]3(C)NC(=O)NC3=O)CC2)cc(C)c1Cl

>  <IC50>
0.001 to 25 nM

$$$$
>  <Compound>
Cc1cc(Cl)ccc1C1CCN(C(=O)CCC2(C)NC(=O)NC2=O)CC1 (stereo not drawn)

>  <IC50>
50 to 100 nM

$$$$
>  <Compound>
COc1cc(C2CCN(C(=O)CC[C@H]3NC(=O)NC3=O)CC2)ccc1Cl

>  <IC50>
25 to 50 nM

$$$$
>  <Compound>
CC(C)C1(CCC(=O)N2CCC(c3ccccc3)CC2)NC(=O)NC1=O (stereo not drawn)

>  <IC50>
> 100 nM

$$$$
>  <Compound>
COc1c(Cl)cccc1C1CCN(C(=O)CCC2(C)NC(=O)NC2=O)CC1 (stereo not drawn)

>  <IC50>
> 100 nM

$$$$
